- target_or_test_system: Serine/threonine-protein kinase mTOR (Homo sapiens)
experimental_readout: IC50 (µM)
One number for each entry, in µM.

Count: 3. Required value per item: IC50.
1. CS(=O)(=O)N1CCN(Cc2cn3cc(-c4cnc(N)nc4)nc(N4CCOCC4)c3n2)CC1
2. CS(=O)(=O)N1CCN(Cc2nc3c(N4CCOCC4)nc(-c4cnc(N)nc4)cn3c2Br)CC1
3. CS(=O)(=O)N1CCN(Cc2cn3c(Cl)c(-c4cnc(N)nc4)nc(N4CCOCC4)c3n2)CC1

1: 4.88; 2: 5.1; 3: 5.71

Entry under review: Cc1c(CN2CCN(S(C)(=O)=O)CC2)nc2c(N3CCOCC3)nc(-c3cnc(N)nc3)cn12 . Reported IC50?
1.26

###

Field: pKi. Provide a value for each of the molecules that follow.
- target_or_test_system: Phosphatidylinositol 4,5-bisphosphate 3-kinase catalytic subunit gamma isoform (Homo sapiens)
- Sequence (P48736 whole entry, canonical isoform): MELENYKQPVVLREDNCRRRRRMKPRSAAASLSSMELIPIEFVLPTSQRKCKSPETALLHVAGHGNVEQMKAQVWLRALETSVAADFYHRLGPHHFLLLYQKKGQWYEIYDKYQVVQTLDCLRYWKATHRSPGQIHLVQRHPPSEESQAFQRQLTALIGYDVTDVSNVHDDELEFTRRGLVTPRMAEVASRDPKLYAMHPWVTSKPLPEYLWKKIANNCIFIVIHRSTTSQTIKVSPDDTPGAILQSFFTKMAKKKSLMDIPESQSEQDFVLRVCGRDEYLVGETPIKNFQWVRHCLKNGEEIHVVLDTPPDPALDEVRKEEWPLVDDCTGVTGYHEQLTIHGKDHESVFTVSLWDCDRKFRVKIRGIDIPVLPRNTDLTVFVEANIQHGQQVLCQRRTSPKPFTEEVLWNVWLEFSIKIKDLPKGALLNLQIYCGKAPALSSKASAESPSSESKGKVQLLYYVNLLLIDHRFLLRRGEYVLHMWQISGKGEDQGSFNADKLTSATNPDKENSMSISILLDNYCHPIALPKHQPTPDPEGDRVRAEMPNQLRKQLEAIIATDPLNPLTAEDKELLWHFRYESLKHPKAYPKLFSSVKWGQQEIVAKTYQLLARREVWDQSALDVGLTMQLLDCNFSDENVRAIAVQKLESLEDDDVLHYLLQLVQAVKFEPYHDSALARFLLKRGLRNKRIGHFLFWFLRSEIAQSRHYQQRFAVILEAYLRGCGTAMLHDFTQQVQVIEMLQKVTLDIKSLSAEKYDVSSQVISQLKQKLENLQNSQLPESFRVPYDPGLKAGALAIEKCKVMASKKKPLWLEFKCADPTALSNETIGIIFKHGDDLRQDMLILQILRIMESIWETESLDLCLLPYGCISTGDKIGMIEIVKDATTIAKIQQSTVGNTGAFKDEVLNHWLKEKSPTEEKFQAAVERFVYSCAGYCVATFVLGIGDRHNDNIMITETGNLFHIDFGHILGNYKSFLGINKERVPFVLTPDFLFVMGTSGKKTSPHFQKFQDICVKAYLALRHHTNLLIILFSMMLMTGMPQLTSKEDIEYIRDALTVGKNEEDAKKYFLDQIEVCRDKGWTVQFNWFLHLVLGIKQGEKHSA
- assay: Inhibition of human PI3Kgamma by ADP accumulation based HTRF assay
- condition_info: read-out: Ki(app)
Numbers only, as −log10 of the molar value.

The cases that follow already have their pKi on record.
>  <substance_smiles>
CS(=O)(=O)N1CCN(Cc2cn3cc(-c4cnc(N)nc4C(F)(F)F)nc(N4CCOCC4)c3n2)CC1

>  <pKi>
7.57

$$$$
>  <substance_smiles>
C[C@H]1CN(Cc2cn3cc(-c4cnc(N)nc4)nc(N4CCOCC4)c3n2)CCN1S(C)(=O)=O

>  <pKi>
6.91

$$$$
>  <substance_smiles>
CS(=O)(=O)N1CCN(Cc2cn3c(Cl)c(-c4cnc(N)nc4)nc(N4CCOCC4)c3n2)CC1

>  <pKi>
7.08

$$$$

Moving on to another molecule below.
Entry under review: Cc1c(CN2CCN(S(C)(=O)=O)CC2)nc2c(N3CCOCC3)nc(-c3cnc(N)nc3)cn12 . Reported pKi?
7.22

###

Field: remaining at 0.25 h, 1 µM. Provide a value for each of the molecules that follow.
- assay: Stability in human liver microsomes at 1 uM incubated for 15 mins
- Format: ADME, Microsome
- condition_info: read-out: Stability
One number for each entry, in %.

>  <substance_smiles>
CS(=O)(=O)N1CCN(Cc2cn3c(Cl)c(-c4cnc(N)nc4)nc(N4CCOCC4)c3n2)CC1

>  <measure_unit>
%

>  <obs_value>
86

$$$$
>  <substance_smiles>
CCS(=O)(=O)N1CCN(Cc2cn3cc(-c4cnc(N)nc4)nc(N4CCOCC4)c3n2)CC1

>  <measure_unit>
%

>  <obs_value>
98

$$$$
>  <substance_smiles>
Cc1c(CN2CCN(S(C)(=O)=O)CC2)nc2c(N3CCOCC3)nc(-c3cnc(N)nc3)cn12

>  <measure_unit>
%

>  <obs_value>
88

$$$$

Count: 2. Required value per item: remaining at 0.25 h, 1 µM.
1. CS(=O)(=O)N1CCN(Cc2cn3cc(-c4cnc(N)nc4C(F)(F)F)nc(N4CCOCC4)c3n2)CC1
2. CS(=O)(=O)N1CCN(Cc2cn3cc(-c4cnc(N)nc4)nc(N4CCOCC4)c3n2)CC1

[82, 93]

Entry under review: CS(=O)(=O)N1CCN(Cc2nc3c(N4CCOCC4)nc(-c4cnc(N)nc4)cn3c2Br)CC1 . Reported remaining at 0.25 h, 1 µM?
70

Ref: ChEMBL document CHEMBL2086238
